These measurements were taken from paper PMC10143232.

experiment: MTT cytotoxicity assay; format: cell-based; conditions: 3T3 mouse fibroblast cells, 48 h, test compounds 1 to 30 µM, NC: non-cytotoxic, read-out: Cytotoxicity Studies Cell Viability (%)
So basically, if viability at 48 h comes in under 80% it's true (1), and if it's 80% or more it's false (0).

{"compound": "COC(=O)C1=C(C)NC(=O)NC1c1ccccc1 (stereo not drawn) [Compound 1]", "qualitativeLabel": "true (1)"}
{"compound": "COC(=O)C1=C(C)NC(=O)NC1c1ccc([N+](=O)[O-])cc1 (stereo not drawn) [Compound 12]", "qualitativeLabel": "true (1)"}
{"compound": "COC(=O)C1=C(C)NC(=O)NC1c1cc(Br)c(OC)c(OC)c1 (stereo not drawn) [Compound 22]", "qualitativeLabel": "true (1)"}
{"compound": "COC(=O)C1=C(C)NC(=O)NC1c1ccc(OC)cc1 (stereo not drawn) [Compound 5]", "qualitativeLabel": "true (1)"}
{"compound": "COC(=O)C1=C(C)NC(=O)NC1c1ccco1 (stereo not drawn) [Compound 9]", "qualitativeLabel": "true (1)"}
{"compound": "COC(=O)C1=C(C)NC(=O)NC1c1ccc(C)o1 (stereo not drawn) [Compound 11]", "qualitativeLabel": "true (1)"}
{"compound": "COC(=O)C1=C(C)NC(=O)NC1c1cc(OC)c(O)c(OC)c1 (stereo not drawn) [Compound 30]", "qualitativeLabel": "true (1)"}
{"compound": "COC(=O)C1=C(C)NC(=O)NC1c1ccc(O)c(Cl)c1 (stereo not drawn) [Compound 28]", "qualitativeLabel": "false (0)"}
{"compound": "COC(=O)C1=C(C)NC(=O)NC1CC(C)C (stereo not drawn) [Compound 21]", "qualitativeLabel": "true (1)"}
{"compound": "COC(=O)C1=C(C)NC(=O)NC1c1ccc(C(F)(F)F)cc1 (stereo not drawn) [Compound 33]", "qualitativeLabel": "true (1)"}
{"compound": "COC(=O)C1=C(C)NC(=O)NC1c1ccc(N(C)C)cc1 (stereo not drawn) [Compound 26]", "qualitativeLabel": "true (1)"}
{"compound": "COC(=O)C1=C(C)NC(=O)NC1c1ccc(C)s1 (stereo not drawn) [Compound 32]", "qualitativeLabel": "false (0)"}

###

experiment: MTT cytotoxicity assay; type: cell-based; details: 3T3 mouse fibroblast cells, 48 h, test compounds 1 to 30 µM, NC: non-cytotoxic, read-out: Cytotoxicity Studies Cell Viability (%)
Here, each record is paired with measured viability at 48 h data.

{"molecule": "COC(=O)C1=C(C)NC(=O)NC1c1ccc(O)cc1 (centres unmarked)", "viability at 48 h": "72%"}
{"molecule": "COC(=O)C1=C(C)NC(=O)NC1c1ccc(Cl)cc1 (centres unmarked)", "viability at 48 h": "72%"}
{"molecule": "COC(=O)C1=C(C)NC(=O)NC1c1ccsc1 (centres unmarked)", "viability at 48 h": "82%"}
{"molecule": "COC(=O)C1=C(C)NC(=O)NC1c1ccc(OC)c(OC)c1 (centres unmarked)", "viability at 48 h": "99%"}
{"molecule": "CCOc1ccc(C2NC(=O)NC(C)=C2C(=O)OC)cc1 (centres unmarked)", "viability at 48 h": "67%"}

###

Test: MTT cytotoxicity assay
Format: cell-based
Settings: 3T3 mouse fibroblast cells, 48 h, test compounds 1 to 30 µM, NC: non-cytotoxic, read-out: Cytotoxicity Studies IC50 ± SD
Description: Cytotoxicity of active compounds were evaluated employing a standard MTT calorimetric assay. Mouse fibroblast (3T3 cell line) acquired from American Type Culture Collection (ATCC), Virginia, USA, was cultured in DMEM (Dulbecco’s modified eagle medium). […] Haemocytometer was used for the quantification of cells. […] The reduction of MTT to formazan was measured by recording absorbance at 540 nm with the help of a microplate reader (SpectraMax 384, Molecular Devices, San Jose, CA, USA).

{"compound": "C[C@@H]1C[C@@H]([C@H](O)CC2CC(=O)NC(=O)C2)C(=O)[C@@H](C)C1 [Cycloheximide, reference compound]", "IC50 at 48 h (nM)": 800}
